Target: human Cereblon WT GST-tagged protein (Homo sapiens, UniProt Q96SW2)
Construct: purchased CISBIO 64BDCRBNPEH
Sequence (Q96SW2 whole entry): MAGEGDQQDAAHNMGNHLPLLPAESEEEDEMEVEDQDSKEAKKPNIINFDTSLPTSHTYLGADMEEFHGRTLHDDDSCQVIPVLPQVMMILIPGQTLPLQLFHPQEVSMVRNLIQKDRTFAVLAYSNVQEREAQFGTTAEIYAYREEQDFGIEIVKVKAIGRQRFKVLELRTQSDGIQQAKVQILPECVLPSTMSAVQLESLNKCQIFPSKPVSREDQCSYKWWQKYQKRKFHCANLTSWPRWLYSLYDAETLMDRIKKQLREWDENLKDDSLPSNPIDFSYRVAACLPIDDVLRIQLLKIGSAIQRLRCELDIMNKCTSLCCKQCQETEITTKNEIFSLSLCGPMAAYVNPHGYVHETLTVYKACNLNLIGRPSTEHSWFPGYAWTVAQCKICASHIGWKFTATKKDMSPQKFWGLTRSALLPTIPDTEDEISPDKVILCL
Experiment: CRBN binding, HTRF (CEREBLON BINDING kit)
Details: Table II-2, CRBN binding screening, HTRF; at 0.5µM; read-out: Inhibition rate (%) at 0.5µM
inhibition at 0.5 µM values, listed per item

Input COc1cc(N2CCC(N(C)Cc3ccc(C4CCC(=O)NC4=O)cc3)CC2)ccc1Nc1ncc(Cl)c(Nc2ccccc2P(C)(C)=O)n1 (stereo not drawn) [GT-03603] . Output inhibition at 0.5 µM: 30 to 40%

Item: CN(c1nccnc1CNc1nc(Nc2ccc(N3CCN(Cc4ccc(C5CCC(=O)NC5=O)cc4)CC3)cc2)ncc1C(F)(F)F)S(C)(=O)=O (stereo not drawn) [GT-07399] | inhibition at 0.5 µM: 10 to 20%

Consider the record given below.
Recorded inhibition at 0.5 µM (compound CC(C)(O)c1cc2nn(C3CCN(Cc4ccnc(C5CCC(=O)NC5=O)c4)CC3)cc2cc1NC(=O)c1cccc(C(F)(F)F)n1 (stereo not drawn) [GT-07542] ): 30 to 40%

---

Test system: H1975
Experiment: CCK-8 proliferation, NCI-H1975 (H1975)
Type: cell-based, Human
Conditions: Homo sapiens, NCI-H1975; CCK-8; 96 hours; read-out: Inhibitory activity (IC50) on tumor cell proliferation, H1975
pIC50: −log10 of the molar value.
Items are presented alongside their recorded pIC50.

Here is how some compounds turned out for pIC50.
// O=C1CCN(c2cccc(CN3CCN(c4ccc(Nc5ncc6nc(Nc7ccccc7)n(C7CCCC7)c6n5)cc4)CC3)c2)C(=O)N1 [GT-05838] : pIC50 value = 6.30 to 7.00

For reference, reported pIC50 for O=C1CCC(c2cncc(CN3C[C@H]4C[C@@H]3CN4c3ccc(-c4cc(F)c5c(c4)C(=O)N(C(C(=O)Nc4nccs4)c4ncn6c4CCC6)C5)cc3)c2)C(=O)N1 (some centres unmarked) [GT-07391] stands at 8.00 to 9.00

Entry O=C1CCC(Nc2cccc(CN3CCN(C4CCN(c5ccc(-c6cc(F)c7c(c6)C(=O)N(C(C(=O)Nc6nccs6)c6ncn8c6CCC8)C7)cc5)CC4(F)F)CC3)c2)C(=O)N1 (centres unmarked) [GT-06321] ; pIC50 = 7.30 to 8.00

Reported pIC50 ( CN1CCN([C@@H]2CCCN(c3cnc(C(N)=O)c(Nc4ccc(C5CCN(Cc6ccc(N7CCC(=O)NC7=O)cc6)CC5)cc4)n3)C2)C1=O [GT-04802] ) = 6.00 to 6.30

Recorded pIC50 (compound O=C1CCN(c2cccc(CN3CCN(C4CCN(c5ccc(-c6cc(F)c7c(c6)C(=O)N(C(C(=O)Nc6nccs6)c6ncn8c6CCC8)C7)cc5)CC4)CC3)c2)C(=O)N1 (centres unmarked) [GT-06245] ): 8.00 to 9.00

# compound CN(Cc1ccc(N2CCC(=O)NC2=O)nc1)C1CCN(c2ccc(-c3cc(F)c4c(c3)C(=O)N(C(C(=O)Nc3nccs3)c3ncn5c3CCC5)C4)cc2)CC1 (centres unmarked) [GT-05283] ; its pIC50 = 8.00 to 9.00

The recorded pIC50 for entry O=C1CCN(c2ccc(CN3CCN(c4ccc(Nc5ncc6nc(Nc7ccccc7)n(C7CCCC7)c6n5)cc4)CC3)cc2)C(=O)N1 [GT-05837] equals 6.30 to 7.00

Record CN(Cc1ccnc(N2CCC(=O)NC2=O)c1)C1CCN(c2ccc(-c3cc(F)c4c(c3)C(=O)N(C(C(=O)Nc3nccs3)c3ncn5c3CCC5)C4)cc2)CC1 (centres unmarked) [GT-07383] . Reported pIC50: 8.00 to 9.00

Consider COc1cc(N2CCC(N(C)Cc3ccc(C4CCC(=O)NC4=O)cc3)CC2)c(C)cc1Nc1ncc(Br)c(Nc2ccc3nccnc3c2P(C)(C)=O)n1 (centres unmarked) [GT-03930] . Its measured pIC50 is 7.00 to 7.30

get_value(item= CNC(=O)c1ccccc1Nc1cc(Nc2ccc(N3CCC(N(C)Cc4ccc(C5CCC(=O)NC5=O)c(F)c4)CC3)cc2OC)ncc1C(F)(F)F (centres unmarked) [GT-03734] , readout=pIC50) returns 6.30 to 7.00

Next up:
Value of pIC50 reported for the compound O=C1CCN(c2ccc(CN3C[C@@H]4C[C@H]3CN4c3ccc(-c4cc(F)c5c(c4)C(=O)N(C(C(=O)Nc4nccs4)c4ncn6c4CCC6)C5)cc3)cc2)C(=O)N1 (some centres unmarked) [GT-05116] is 7.30 to 8.00

Sourced from patent EP4678638A1
